# Tested on: HCT-116
# MEASUREMENT NOTES: Cytotoxicity against human HCT116 cells
# Format: functional, cell-based
QUANTITY MEASURED: pIC50
Lab note — pIC50 values are minus log10 of concentrations in M.

GET /values?readout=pIC50&item= C[C@@]12OC(=O)[C@]1([C@@H](O)[C@@H]1C=CCCC1)NC(=O)[C@@H]2CCCl [MARIZOMIB]
7.46
